TARGET DESC: renal dipeptidase (E.C.3.4.13.11) (Sus scrofa, UniProt P22412)
Construct: solubilized preparation of dipeptidase isolated from hog kidneys; from tissue; host or cells: hog (pig) kidney
Sequence (P22412 17-409): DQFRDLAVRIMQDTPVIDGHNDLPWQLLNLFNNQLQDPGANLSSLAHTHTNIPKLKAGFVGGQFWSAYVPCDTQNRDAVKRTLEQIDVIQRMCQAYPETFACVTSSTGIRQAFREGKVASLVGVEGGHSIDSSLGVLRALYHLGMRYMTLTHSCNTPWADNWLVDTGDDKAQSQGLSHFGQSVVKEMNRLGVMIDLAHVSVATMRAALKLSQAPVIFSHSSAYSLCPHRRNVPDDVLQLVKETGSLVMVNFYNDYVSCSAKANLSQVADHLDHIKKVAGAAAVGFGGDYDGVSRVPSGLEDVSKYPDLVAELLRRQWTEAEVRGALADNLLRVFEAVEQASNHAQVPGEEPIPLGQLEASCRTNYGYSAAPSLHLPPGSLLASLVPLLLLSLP
ASSAY METHOD TEXT: Inhibition of GDP (glycyldehydrophenylalanine) hydrolysis by solubilized renal dipeptidase
Assay type: biochemical, hog (pig) kidney
CONDITION LABEL: 10^-4 M inhibitor; GDP 0.05 mM; pH 7.1; 37° C.
MEASURED ATTRIBUTE: inhibition at 100 µM (%)
Write down the numeric answer in % and omit the unit.

# COMPOUND, inhibition at 100 µM, %
records = [
    ("C/C=C(\\NC(=O)C1CCC1)C(=O)O [Compound 8]", 80),
    ("CCCC/C=C(\\NC(=O)C1CC1(C)C)C(=O)O (stereo not shown) [Compound 49]", 100),
    ("CCCCCCCCCC/C=C(\\NC(=O)C1CC1(C)C)C(=O)O (stereo not shown) [Compound 58]", 96),
    ("C/C=C(\\NC(=O)C1CC1C(C)(C)C)C(=O)O (stereo not shown) [Compound 38]", 90),
    ("C/C=C(\\NC(=O)CC(C)CC)C(=O)O (stereo not shown) [Compound 11]", 82),
]

Task: inhibition at 100 µM for C/C=C(\NC(=O)C1CC1(C)CC)C(=O)O (stereo not shown) [Compound 40] ?
Result: 100

Task: Also need C/C=C(\NC(=O)C1CC1)C(=O)O [Compound 10] , thanks.
Result: 97

Task: Also need CCCCC/C=C(\NC(=O)C1CC1(C)C)C(=O)O (stereo not shown) [Compound 50] , thanks.
Result: 100

Task: Also need C/C=C(\NC(=O)C1CC1(CC)CC)C(=O)O (stereo not shown) [Compound 42] , thanks.
Result: 98

Task: Also need CCC/C=C(\NC(=O)C1CC1(C)C)C(=O)O (stereo not shown) [Compound 47] , thanks.
Result: 98

Origin of the recorded values: patent US4539208A
